Each item that follows carries a reported inhibition at 10 µM.
Target: CYP 3A4 (Homo sapiens (Human), UniProt P08684)
Sequence (P08684 whole entry): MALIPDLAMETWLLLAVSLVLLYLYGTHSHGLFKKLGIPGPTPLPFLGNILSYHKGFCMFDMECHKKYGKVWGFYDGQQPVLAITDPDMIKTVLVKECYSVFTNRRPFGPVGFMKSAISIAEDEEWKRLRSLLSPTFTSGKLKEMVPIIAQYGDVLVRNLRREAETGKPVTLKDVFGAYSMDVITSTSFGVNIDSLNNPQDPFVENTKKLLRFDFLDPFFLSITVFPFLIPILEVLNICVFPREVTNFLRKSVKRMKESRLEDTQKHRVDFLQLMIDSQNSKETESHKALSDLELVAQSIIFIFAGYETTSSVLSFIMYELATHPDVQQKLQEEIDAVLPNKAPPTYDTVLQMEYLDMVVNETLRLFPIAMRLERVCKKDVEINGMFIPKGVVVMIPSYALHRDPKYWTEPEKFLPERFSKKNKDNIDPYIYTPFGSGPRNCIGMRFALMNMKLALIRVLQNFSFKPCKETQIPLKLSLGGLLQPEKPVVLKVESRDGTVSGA
Test: in vitro
Settings: % Mean
Protocol: CYP450 inhibition profiling provides valuable information regarding any possible drug-drug interactions for a test compound. All experiments were performed using P450-Glo™ Assay Systems (Promega) in accordance with the manufacturer's protocols. The P450-Glo™ Assays provide a luminescent readout-based method for measuring cytochrome P450 activity. A conventional cytochrome P450 reaction was performed by incubating the cytochrome P450 and a luminogenic cytochrome P450 substrate. […]
Give your result in % as a bare value.

Some entries whose results are on file:
MOLECULE	TEST SYSTEM	inhibition at 10 µM, %
CC(C)c1nccn1CC(=O)Nc1ccc(-c2ccccc2)cc1 [Compound 2]	CYP 3A4 (Homo sapiens (Human), UniProt P08684)	-14.3
O=C(Cn1cnc2c1CCCC2)Nc1ccc(-c2ccccc2)cc1 [Compound 1]	CYP 3A4 (Homo sapiens (Human), UniProt P08684)	-24.4
O=C(Cn1ccnc1-c1ccccn1)Nc1ccc(-c2ccccc2)cc1 [Compound 4]	CYP 3A4 (Homo sapiens (Human), UniProt P08684)	1.4
CC(C)(C)Sc1ccc(NC(=O)Cn2ccnc2)cc1 [Compound 3]	CYP 3A4 (Homo sapiens (Human), UniProt P08684)	88.3

Now consider a different molecule.
Provide inhibition at 10 µM value for the following molecule: Cc1nc2c(c(N3CCCN(Cc4ccccc4)CC3)n1)CCCC2 [Compound 31]
-16.1

----------
tested on: TA 100; test: Ames Test, strain TA 100; settings: TA 100, 100 μM
ASSAY ENDPOINT: Mean ± SD

In the examples that follow, each entry is paired with its recorded Mean ± SD.
COMPOUND	ASSAY ENDPOINT	ASSAY RESULT
CC(C)(C)Sc1ccc(NC(=O)Cn2ccnc2)cc1 [Compound 3]	Mean ± SD	>200 revertant colonies per plate
O=C(Cn1cnc2c1CCCC2)Nc1ccc(-c2ccccc2)cc1 [Compound 1]	Mean ± SD	0 ± 0 revertant colonies per plate
CC(C)c1nccn1CC(=O)Nc1ccc(-c2ccccc2)cc1 [Compound 2]	Mean ± SD	6 ± 2.83 revertant colonies per plate

Please give the documented Mean ± SD of O=C(Cn1ccnc1-c1ccccn1)Nc1ccc(-c2ccccc2)cc1 [Compound 4]
7.5 ± 3.54 revertant colonies per plate

Report Mean ± SD for Cc1nc2c(c(N3CCCN(Cc4ccccc4)CC3)n1)CCCC2 [Compound 31]
6 ± 0 revertant colonies per plate

----------
molecular target: CYP 2D6 (Homo sapiens (Human), UniProt P10635); test: P450-Glo CYP450 inhibition, CYP 2D6
Sequence (P10635 whole entry): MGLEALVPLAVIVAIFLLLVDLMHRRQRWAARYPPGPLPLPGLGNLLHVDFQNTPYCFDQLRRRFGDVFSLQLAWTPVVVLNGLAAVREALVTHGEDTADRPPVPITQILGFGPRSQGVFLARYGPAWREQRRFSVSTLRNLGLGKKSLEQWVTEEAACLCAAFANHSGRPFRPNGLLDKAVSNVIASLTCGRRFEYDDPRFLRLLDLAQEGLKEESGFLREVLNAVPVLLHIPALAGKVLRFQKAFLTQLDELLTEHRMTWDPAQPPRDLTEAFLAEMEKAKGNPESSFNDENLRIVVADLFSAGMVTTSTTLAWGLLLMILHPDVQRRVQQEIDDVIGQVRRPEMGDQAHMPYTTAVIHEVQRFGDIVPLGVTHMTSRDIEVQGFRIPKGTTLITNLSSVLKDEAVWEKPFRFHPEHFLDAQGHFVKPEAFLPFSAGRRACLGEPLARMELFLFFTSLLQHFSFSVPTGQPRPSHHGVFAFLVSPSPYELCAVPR
ASSAY ENDPOINT: inhibition at 1 µM (%)
Please reply with the bare figure in % and do not write the unit itself.

Give the reported value of inhibition at 1 µM for this record: C=C[C@H]1C[N@@]2CC[C@H]1C[C@@H]2[C@@H](O)c1ccnc2ccc(OC)cc12 [quinidine, reference compound]
88.4

----------
molecular target: CYP 1A2 (Homo sapiens (Human)); experiment: in vitro; details: % Mean
Sequence (P05177 whole entry): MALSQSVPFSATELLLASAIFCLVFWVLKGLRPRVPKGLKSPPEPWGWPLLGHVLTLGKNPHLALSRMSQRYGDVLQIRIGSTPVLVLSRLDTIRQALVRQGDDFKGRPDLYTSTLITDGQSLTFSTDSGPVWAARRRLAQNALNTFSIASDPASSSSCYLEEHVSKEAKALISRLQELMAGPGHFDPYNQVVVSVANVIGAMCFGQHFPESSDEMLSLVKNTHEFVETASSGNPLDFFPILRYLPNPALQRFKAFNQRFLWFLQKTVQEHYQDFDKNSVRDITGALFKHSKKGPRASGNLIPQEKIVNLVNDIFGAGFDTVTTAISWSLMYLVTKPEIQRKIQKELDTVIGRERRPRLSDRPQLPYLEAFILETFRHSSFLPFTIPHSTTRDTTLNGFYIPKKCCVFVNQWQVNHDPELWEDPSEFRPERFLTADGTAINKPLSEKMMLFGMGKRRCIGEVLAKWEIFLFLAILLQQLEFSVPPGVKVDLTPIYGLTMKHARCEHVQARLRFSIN
I would appreciate it if you labelled entries yes (1) when inhibition at 10 µM is 40% or higher, otherwise no (0).

Recorded results for 3 compounds are shown here.
STRUCTURE	TEST SYSTEM	CLASS
Cc1nc2c(c(N3CCCN(Cc4ccccc4)CC3)n1)CCCC2	CYP 1A2 (Homo sapiens (Human))	no (0)
O=C(Cn1cnc2c1CCCC2)Nc1ccc(-c2ccccc2)cc1	CYP 1A2 (Homo sapiens (Human))	yes (1)
CC(C)(C)Sc1ccc(NC(=O)Cn2ccnc2)cc1	CYP 1A2 (Homo sapiens (Human))	yes (1)

Lab note: next compound to report on.
Check the entry O=C(Cn1ccnc1-c1ccccn1)Nc1ccc(-c2ccccc2)cc1 : does inhibition at 10 µM equal or exceed 40%?
no (0)

----------
system: TA 98; assay: Ames Test, strain TA 98; conditions: TA 98, 100 μM
ASSAY ENDPOINT: Fold increase (over baseline)
Lab note: write the figure by itself, no unit.

Solved entries:
STRUCTURE	ASSAY RESULT
CC(C)c1nccn1CC(=O)Nc1ccc(-c2ccccc2)cc1	0.2
O=C(Cn1ccnc1-c1ccccn1)Nc1ccc(-c2ccccc2)cc1	0
O=C(Cn1cnc2c1CCCC2)Nc1ccc(-c2ccccc2)cc1	0.2
Cc1nc2c(c(N3CCCN(Cc4ccccc4)CC3)n1)CCCC2	0.3

# input for lookup
Let me know recorded Fold increase (over baseline) for CC(C)(C)Sc1ccc(NC(=O)Cn2ccnc2)cc1 , thanks.
0.2

----------
assay: Metabolic stability in mouse liver microsomes; type: in vitro ADME; conditions: 2 μM, 40 minutes, mouse hepatic microsomes

STRUCTURE	metabolic stability
Cc1nc2c(c(N3CCCN(Cc4ccccc4)CC3)n1)CCCC2	low stability
CC(C)c1nccn1CC(=O)Nc1ccc(-c2ccccc2)cc1	moderate stability
O=C(Cn1cnc2c1CCCC2)Nc1ccc(-c2ccccc2)cc1	moderate stability
O=C(Cn1ccnc1-c1ccccn1)Nc1ccc(-c2ccccc2)cc1	low stability

----------
tested on: TA 1537; experiment: Ames Test, strain TA 1537; settings: TA 1537, 50 μM (row printed 100; conc. column shifted)
Known Mean ± SD of a selection of molecules

STRUCTURE	ASSAY RESULT
O=C(Cn1cnc2c1CCCC2)Nc1ccc(-c2ccccc2)cc1	0.5 ± 0.7 revertant colonies per plate
Cc1nc2c(c(N3CCCN(Cc4ccccc4)CC3)n1)CCCC2	1 ± 1.41 revertant colonies per plate
CC(C)c1nccn1CC(=O)Nc1ccc(-c2ccccc2)cc1	1.5 ± 2.12 revertant colonies per plate
CC(C)(C)Sc1ccc(NC(=O)Cn2ccnc2)cc1	1 ± 1.41 revertant colonies per plate

Now consider the entry below.
Kindly indicate its recorded Mean ± SD. Item: O=C(Cn1ccnc1-c1ccccn1)Nc1ccc(-c2ccccc2)cc1
0.5 ± 0.7 revertant colonies per plate

----------
tested on: Salmonella typhimurium and Escherichia coli tester strains; experiment: Bacterial reverse mutation assay (Ames Test), all tester strains; conditions: 50, 100 and 200 μM
ASSAY ENDPOINT: mutagenic potential for the tester strains

STRUCTURE	ASSAY RESULT
Cc1nc2c(c(N3CCCN(Cc4ccccc4)CC3)n1)CCCC2	no mutagenic potential
O=C(Cn1ccnc1-c1ccccn1)Nc1ccc(-c2ccccc2)cc1	no mutagenic potential
O=C(Cn1cnc2c1CCCC2)Nc1ccc(-c2ccccc2)cc1	no mutagenic potential
CC(C)c1nccn1CC(=O)Nc1ccc(-c2ccccc2)cc1	no mutagenic potential

----------
Target: Parkin (Homo sapiens (Human))
Sequence (O60260 whole entry): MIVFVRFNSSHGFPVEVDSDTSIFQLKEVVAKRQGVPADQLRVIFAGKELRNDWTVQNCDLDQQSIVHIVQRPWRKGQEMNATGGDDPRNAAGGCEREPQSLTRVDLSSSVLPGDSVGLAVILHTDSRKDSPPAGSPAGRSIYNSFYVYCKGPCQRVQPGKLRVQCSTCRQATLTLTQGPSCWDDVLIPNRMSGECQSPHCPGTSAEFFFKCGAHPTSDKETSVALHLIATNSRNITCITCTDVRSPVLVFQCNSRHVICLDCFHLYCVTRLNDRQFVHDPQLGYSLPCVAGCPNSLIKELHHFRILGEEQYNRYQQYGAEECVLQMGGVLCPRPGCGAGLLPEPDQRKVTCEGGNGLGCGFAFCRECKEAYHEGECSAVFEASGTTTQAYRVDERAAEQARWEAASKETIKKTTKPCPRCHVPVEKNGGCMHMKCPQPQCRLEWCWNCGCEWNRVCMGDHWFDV
Experiment: Primary HCI assay of EGFP-Parkin translocation to mitochondria
Conditions: primary assay screen, Parkin translocation to mitochondria
Experimental: GFP-Parkin is localized throughout the cell in unstressed cells but translocates to mitochondria when the mitochondrial membrane potential is compromised and Parkin is activated. […] To quantify the relocalization of GFP-Parkin to mitochondria, the ratio of the GFP intensity in the cytoplasm and the nucleus was calculated. […] FIGS. 2A-2C show a primary HCI assay with CCCP titration. […] Z′ was calculated for quality control. […]
pEC50: −log10 of the molar value.
If the reported pEC50 equals or exceeds 6, assign criterion met. If not, assign criterion not met.

Consider the worked cases shown below.
MOLECULE	TEST SYSTEM	CLASS
O=C(Cn1ccnc1)Nc1ccc(CN2CCc3ccccc32)cc1 [Compound 9]	Parkin (Homo sapiens (Human))	criterion not met
Cc1ccnc(-c2ccc(NC(=O)Cn3cnc4c3CCCC4)cc2)n1 [Compound 27]	Parkin (Homo sapiens (Human))	criterion met
Cc1nc2c(c(N3CCCN(Cc4csc(C)n4)CC3)n1)CCCC2 [Compound 35]	Parkin (Homo sapiens (Human))	criterion not met

Does O=C(Cn1ccnc1)Nc1ccc(C23CC4CC(CC(C4)C2)C3)cc1 [Compound 10] have a reported pEC50 of at least 6?
criterion not met

Hi team, for Cc1nccn1CC(=O)Nc1ccc(-c2ccccc2)cc1 [Compound 19] , is the recorded pEC50 at or above 6?
criterion not met

Please tell me: is the molecule c1ccc(CN2CCCN(c3ncnc4c3CCCCC4)CC2)cc1 [Compound 32] at or over 6 in terms of pEC50?
criterion met
